Tested on: HOP-62
method.description: Growth inhibition of human HOP62 cells assessed as cell viability at 10 uM incubated for 48 hrs by sulforhodamine B assay
Type: functional
details: HOP-62, 48 h, read-out: Activity
Listed below: viability at 10 µM values for each entry.
Reply numerically in %, unit not repeated.

molecule | viability at 10 µM, %
COc1ccc(NC(=O)NS(=O)(=O)c2ccc(N3N=C(c4cc5ccccc5oc4=O)CC3c3ccc(N(C)C)cc3)cc2)cc1 (stereo not given) | 71.8

Req: Recorded viability at 10 µM for COc1ccc(C2CC(c3ccco3)=NN2c2ccc(S(=O)(=O)NC(=O)NCc3ccccc3)cc2)cc1 (stereo not given) , please?
Resp: 103

Req: If you can, please state the reported viability at 10 µM value of O=C(NCc1ccccc1)NS(=O)(=O)c1ccc(N2N=C(c3cc4ccccc4oc3=O)CC2c2cccs2)cc1 (stereo not given) .
Resp: 93.6

Req: Sample COc1ccc(C2CC(c3cc4ccccc4oc3=O)=NN2c2ccc(S(=O)(=O)NC(=O)Nc3ccccc3C)cc2)cc1 (stereo not given) — what was its viability at 10 µM?
Resp: 87.3

Req: Request the reported viability at 10 µM associated with CN(C)c1ccc(C2CC(c3cc4ccccc4oc3=O)=NN2c2ccc(S(=O)(=O)NC(=O)NCc3ccccc3)cc2)cc1 (stereo not given)
Resp: 57.8

Values compiled from ChEMBL document CHEMBL3621178.
